Data provenance is ChEMBL document CHEMBL4422689.

molecular target: UniProt O42275; assay: Inhibition of Electrophorus electricus AChE at 50 uM using acetylthiocholine iodide as substrate measured after 15 mins by Ellman's method relative to control
Sequence (O42275 24-633 limits assumed): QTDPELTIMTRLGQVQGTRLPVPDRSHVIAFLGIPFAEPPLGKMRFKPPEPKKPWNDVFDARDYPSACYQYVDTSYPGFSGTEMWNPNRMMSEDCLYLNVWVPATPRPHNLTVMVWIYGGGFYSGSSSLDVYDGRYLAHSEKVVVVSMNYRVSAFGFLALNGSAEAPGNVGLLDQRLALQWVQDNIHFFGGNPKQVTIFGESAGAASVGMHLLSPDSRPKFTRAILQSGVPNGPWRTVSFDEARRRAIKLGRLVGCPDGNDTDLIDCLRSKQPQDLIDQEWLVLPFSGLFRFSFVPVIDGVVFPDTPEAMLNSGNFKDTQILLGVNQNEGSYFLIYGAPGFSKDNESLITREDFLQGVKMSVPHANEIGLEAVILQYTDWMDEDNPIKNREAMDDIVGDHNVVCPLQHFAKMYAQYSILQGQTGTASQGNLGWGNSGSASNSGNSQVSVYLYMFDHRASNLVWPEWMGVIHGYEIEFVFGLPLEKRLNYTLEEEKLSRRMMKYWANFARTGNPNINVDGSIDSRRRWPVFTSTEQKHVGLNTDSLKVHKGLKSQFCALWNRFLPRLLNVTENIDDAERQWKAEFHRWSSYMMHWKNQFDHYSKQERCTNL
Consider the following compounds and their measured inhibition readings.
readout_type: inhibition (%)

1. COC(=O)C(C)c1ccc(-c2ccc(O)c(CN3CCCC3)c2)c(F)c1 (stereo not given): 17
2. COC(=O)C(C)c1ccc(-c2ccc(O)c(CN3CCN(C)CC3)c2)c(F)c1 (stereo not given): 13.3
3. CCN(CC)Cc1cc(-c2ccc(C(C)C(=O)OC)cc2F)ccc1O (stereo not given): 14.3
4. CC(C(=O)O)c1ccc(-c2ccccc2)c(F)c1 (stereo not given) [FLURBIPROFEN]: 15.6
5. COC(=O)C(C)c1ccc(-c2ccc(O)c(CN3CCCCC3)c2)c(F)c1 (stereo not given): 22.9
6. COC(=O)C(C)c1ccc(-c2ccc(O)c(CN3CCOCC3)c2)c(F)c1 (stereo not given): 14.9
7. CCN(Cc1ccccc1)Cc1cc(-c2ccc(C(C)C(=O)OC)cc2F)ccc1O (stereo not given): 36.4
8. CCN(Cc1cc(-c2ccc(C(C)C(=O)OC)cc2F)ccc1O)Cc1ccccc1OC (stereo not given): 28
9. COC(=O)C(C)c1ccc(-c2ccc(O)c(CN(C)Cc3ccccc3OC)c2)c(F)c1 (stereo not given): 28
10. CCN(Cc1ccc(N(C)C)cc1)Cc1cc(-c2ccc(C(C)C(=O)OC)cc2F)ccc1O (stereo not given): 34.1
11. COC(=O)C(C)c1ccc(-c2ccc(O)c(CN(C)Cc3ccccc3)c2)c(F)c1 (stereo not given): 35.1
12. COC(=O)C(C)c1ccc(-c2ccc(O)c(CN(C)C)c2)c(F)c1 (stereo not given): 18.6
13. CCN1CCN(Cc2cc(-c3ccc(C(C)C(=O)OC)cc3F)ccc2O)CC1 (stereo not given): 7.13
14. COC(=O)C(C)c1ccc(-c2ccc(O)c(CN3CCN(Cc4ccccc4)CC3)c2)c(F)c1 (stereo not given): 38.3
15. CCN(Cc1cc(-c2ccc(C(C)C(=O)OC)cc2F)ccc1O)Cc1ccccc1N(C)C (stereo not given): 45.5

====

Consider the following compounds and their measured inhibition readings.
molecular target: Amyloid-beta precursor protein (Homo sapiens) (UniProt P05067); experiment: Inhibition of HFIP-pretreated human amyloid beta (1 to 42) self-induced aggregation at 25 uM measured after 24 hrs by thioflavin-T fluorescence assay relative to control
Sequence (P05067 whole entry): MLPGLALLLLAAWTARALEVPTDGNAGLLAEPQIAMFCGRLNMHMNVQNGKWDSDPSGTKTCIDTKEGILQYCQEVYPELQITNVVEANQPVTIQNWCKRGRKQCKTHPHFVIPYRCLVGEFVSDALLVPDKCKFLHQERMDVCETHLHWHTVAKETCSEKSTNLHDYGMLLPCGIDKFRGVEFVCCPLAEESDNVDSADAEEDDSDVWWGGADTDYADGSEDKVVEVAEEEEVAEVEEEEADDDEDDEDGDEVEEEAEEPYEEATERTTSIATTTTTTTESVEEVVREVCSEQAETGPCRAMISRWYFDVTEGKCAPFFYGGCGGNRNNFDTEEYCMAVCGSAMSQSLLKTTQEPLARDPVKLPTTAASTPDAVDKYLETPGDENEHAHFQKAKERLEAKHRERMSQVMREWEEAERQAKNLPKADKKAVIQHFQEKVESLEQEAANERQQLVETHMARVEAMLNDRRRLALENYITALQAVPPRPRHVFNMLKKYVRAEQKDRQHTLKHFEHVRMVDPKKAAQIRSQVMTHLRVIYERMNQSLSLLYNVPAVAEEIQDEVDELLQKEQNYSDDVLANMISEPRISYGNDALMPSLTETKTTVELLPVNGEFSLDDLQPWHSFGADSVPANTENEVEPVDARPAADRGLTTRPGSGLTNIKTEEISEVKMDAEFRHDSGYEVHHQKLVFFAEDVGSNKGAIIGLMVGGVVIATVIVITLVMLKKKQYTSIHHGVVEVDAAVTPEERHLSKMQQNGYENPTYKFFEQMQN
readout_type: inhibition (%)

1. CCN(Cc1ccccc1)Cc1cc(-c2ccc(C(C)C(=O)OC)cc2F)ccc1O (stereo not given): 36.8
2. COC(=O)C(C)c1ccc(-c2ccc(O)c(CN3CCOCC3)c2)c(F)c1 (stereo not given): 12.9
3. CCN1CCN(Cc2cc(-c3ccc(C(C)C(=O)OC)cc3F)ccc2O)CC1 (stereo not given): 28.9
4. COC(=O)C(C)c1ccc(-c2ccc(O)c(CN3CCN(C)CC3)c2)c(F)c1 (stereo not given): 34.1
5. COC(=O)C(C)c1ccc(-c2ccc(O)c(CN(C)Cc3ccccc3OC)c2)c(F)c1 (stereo not given): 60.6
6. CCN(Cc1cc(-c2ccc(C(C)C(=O)OC)cc2F)ccc1O)Cc1ccccc1OC (stereo not given): 60.5
7. CCN(Cc1cc(-c2ccc(C(C)C(=O)OC)cc2F)ccc1O)Cc1ccccc1N(C)C (stereo not given): 60.6
8. CC(C(=O)O)c1ccc(-c2ccccc2)c(F)c1 (stereo not given): 12.8
9. COC(=O)C(C)c1ccc(-c2ccc(O)c(CN3CCN(Cc4ccccc4)CC3)c2)c(F)c1 (stereo not given): 28.4
10. CCN(Cc1ccc(N(C)C)cc1)Cc1cc(-c2ccc(C(C)C(=O)OC)cc2F)ccc1O (stereo not given): 65
